Test: NCI Yeast Anticancer Drug Screen. Data for the mgt1 strain (AID 153)
Conditions: S. cerevisiae mgt1 mutant growth inhibition; at 11.0 µM; stronger effect = higher value
Experimental: Growth inhibition of yeast strains with defined genetic alterations is measured as a screen for potential anti-cancer activity. Selected strains with alterations in DNA damage repair or cell cycle control were exposed to compounds and growth inhibition was measured relative to vehicle treated controls. The strain used in this assay is mgt1
Compounds without any hit were thinned out: in the full panel of roughly 79,000, 15% have a hit.
readout label: growth inhibition (%)
Provide only the numeric value, understood in %.

Value of measured growth inhibition for the entry O=C1C(/C=C/c2ccc(Cl)cc2)=NNC2N1N=C1NC(=O)C3(NN12)c1ccccc1-c1ccccc13 (stereo not drawn) : -2

Sample CC(C)(CN1CCCCC1)C(=O)CC(SCCS(=O)(=O)O)c1ccccc1 (stereo not drawn) ; growth inhibition observed: 6

The recorded growth inhibition for entry `O=[N+]([O-])c1ccc2[nH]c3c(-c4ccccc4)nccc3c2c1` equals 94

Just so you know, measured growth inhibition for `CCCCCCCCCCCCCCCCCCNC(=S)/N=C/c1c(O)c2ccccc2[nH]c1=O` came out at 2

// C[C@H](CCC1=NC(C)(C)CO1)C1CCC2[C@@H]3C(O)C[C@@H]4CC(O)CC[C@]4(C)C3CC[C@@]21C (stereo partly drawn) : growth inhibition value = -9

Record `COC(=O)c1ccccc1N=NNc1cccc(SC)c1` . Reported growth inhibition: -3

The recorded growth inhibition for entry `c1ccc([P+](CCN2Cc3ccccc3C2)(c2ccccc2)c2ccccc2)cc1` equals 28

Looking up `CN1CCN(C(=O)c2cccc3cccc(C(=O)O)c23)CC1` , I found its growth inhibition recorded as 11

According to the records, this compound `CCCCCCCCCCCCCCN` displays growth inhibition of -5

Note to self: growth inhibition recorded for COc1ccc2c3c1OC(C)C31CC(=O)CCC1CC2 (stereo not drawn) was -4

The reported value for COc1cc2c(cc1O)[C@H](C)C(c1ccccc1OC)O2 (stereo partly drawn) in terms of growth inhibition is -4

Lab book: growth inhibition of `CC(C)(CN1CCCCC1)C(=O)/C=C/c1c(Cl)cccc1Cl` noted as 81

Lab note: measured growth inhibition of `N#[N+]c1c([O-])c2ccccc2c2ccccc12` was 23

# compound `CN(C)CCNC(=Cc1ccc2ccccc2[n+]1C)NCCN(C)C` ; its growth inhibition = -3

Short answer for O=C(O)c1cc2c(cc1S(=O)(=O)O)C1C(C3C2C2(Cl)C(Cl)=C(Cl)C3(Cl)C2(Cl)Cl)C2(Cl)C(Cl)=C(Cl)C1(Cl)C2(Cl)Cl (stereo not drawn) : growth inhibition was 22

Consider CCCCCCC1OCC(O)C(OCCCC)O1 (stereo not drawn) . Its measured growth inhibition is -4

growth inhibition reported for this compound `O=S1(=O)CCC2=CC(C(F)(F)F)=CC(C(F)(F)F)=CN21` : 55

The compound `Cc1c(C(=O)/C=C/c2ccccc2[N+](=O)[O-])[n+](=O)c2ccccc2n1[O-]` showed growth inhibition equal to 93

// growth inhibition value for CCC(OC(C)=O)C1CC(C(C)C)CCC1C (stereo not drawn) : 0

The reported growth inhibition of the compound `CC(=O)CCC1=C(C)C(=O)C(=O)C(C)=C1O` was 4

// recorded growth inhibition for `CC1=C(C)C(=O)C2=C(OCCO2)C1=O` : -2

Record `Cc1ccc(Nc2n[nH]c(=S)s2)c(C)c1` . Reported growth inhibition: -21

Briefly, growth inhibition measured for `CC1(C)CC(=O)C(C=NC(=S)C(N)=S)=C(O)C1` : 3
